Biological target: Sentrin-specific protease 8 (Homo sapiens);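 further: kinetic enzyme assay of SENP8 cleaving a Nedd8 protein substrate, dose-response confirmation of screening hits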
Sequence (Q96LD8 whole entry): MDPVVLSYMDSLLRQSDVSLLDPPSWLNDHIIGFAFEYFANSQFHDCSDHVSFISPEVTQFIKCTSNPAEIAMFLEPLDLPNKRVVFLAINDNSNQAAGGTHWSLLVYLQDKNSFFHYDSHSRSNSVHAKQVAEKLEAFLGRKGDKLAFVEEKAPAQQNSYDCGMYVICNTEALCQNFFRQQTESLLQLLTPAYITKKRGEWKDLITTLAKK
Format: functional
Calls of active or inactive are those of the source.
measured.parameter: IC50

O=C1Nc2ccc([N+](=O)[O-])cc2C1=Nc1cccc(CO)c1    7.06 µM (active)
NS(=O)(=O)c1ccc(CCNC(=O)COC(=O)c2ccc([N+](=O)[O-])o2)cc1    9.2 µM (active)
CN(C)/C=N/c1c(Br)cc(Br)c2nonc12    10.2 µM (active)

Input: Query IC50 for OCCN1CCN(C(=S)c2ccc(Cl)c(Cl)c2)CC1
Output: 10.8 µM (active)
